- Test system: OVCAR-3
- method.notes: NCI tumour cell line growth inhibition, 48 h
Calls of active or inactive are those of the source. Rule as the data show it: active = GI50 up to about 1.1 µM and inactive = higher.
metric.name: GI50

Some compounds with recorded GI50:
compound	GI50
COc1cc(C(c2ccc3c(c2)OCO3)N2C(=O)CCC2C(=O)O)cc(OC)c1OC (configuration not stated)	> 100 µM (inactive)
COc1ccc(C(=O)C(CC2C(=O)CC(C)(C)C(C(=O)C(=O)Nc3c(C)cccc3C)C2=O)c2ccc(OC)cc2)cc1 (configuration not stated)	> 100 µM (inactive)
NS(=O)(=O)c1nn2c(Br)c(-c3ccccc3)nc2s1	4.49 µM (inactive)
CC(C)(C)OC(=O)N1CCC2(C)CC(=O)CC=C12 (configuration not stated)	> 100 µM (inactive)
CCOC(=O)c1ccc(/N=C\c2ccc(N(CCC#N)CCC#N)cc2)cc1	> 100 µM (inactive)
C=CC(Br)(CBr)CCC(Br)C(C)C (configuration not stated)	4.5 µM (inactive)
c1ccc2c(c1)nc1n2CCSC1	> 100 µM (inactive)
CC1(C)C2CC1C(/C=N\OCC(=O)O)=CC2=O (configuration not stated)	> 100 µM (inactive)

Field: next compound
Observed GI50, OVCAR-3, CC(C)=CCC/C(C)=C/CC/C(C)=C/C(O)c1ccccc1 (configuration not stated) : 20.1 µM (inactive)

###

- Tested on: SF-539
- method.notes: NCI tumour cell line growth inhibition, 48 h
Calls of active or inactive are those of the source. Rule as the data show it: active = GI50 up to about 1.1 µM and inactive = higher.
metric.name: GI50

molecule	GI50
O=[N+]([O-])CC(SCc1ccccc1)c1ccc2c(c1)OCO2 (stereo unspecified)	4.01 µM (inactive)
O=C1c2ccncc2C(=O)c2c(O)ccc(O)c21	3.89 µM (inactive)

Form field GI50, entry c1ccc2c(c1)nc1n2CCSC1 : > 100 µM (inactive)

response.value for CC(=O)c1ccc(NC(=O)/C(CC(=O)/C=C/c2ccccc2)=N/NC(N)=S)cc1 (field: GI50) = > 100 µM (inactive)

Short answer for CCOc1cc2c(cnc3c4cc(OC)c(OC)cc4ccc23)cc1OC : GI50 was > 100 µM (inactive)

Record summary for COc1ccc(NC(=O)CC(=O)N2N=C(N(CCC#N)c3cccc(C)c3)CC2c2ccccc2)cc1 (stereo unspecified) : reported GI50 = > 100 µM (inactive)

For this molecule ( CCCCCCCCCCCCCCCCCCOCC(C[N+]1(C)CCC(O)CC1)OCC (stereo unspecified) ), measured GI50 is 14.9 µM (inactive)

Lab note: Cc1ccc(-c2c(-c3ccccc3)[nH]c(C)c2C(=O)ONC(=O)c2ccccc2)cc1 gave GI50 of 2.97 µM (inactive)

The molecule listed as CC1=C(C(=O)N(C)c2ccc(Cl)c(C(=O)OC(C)C)c2)SCCO1 shows GI50 equal to > 100 µM (inactive)

Given item Cc1sc2nc(-c3ccc(Cl)c([N+](=O)[O-])c3)c(/C=N/NC(=N)N)n2c1C , the value recorded as its GI50 is 1.64 µM (inactive)

Recorded GI50 (molecule NC1=NC(c2ccc(Cl)cc2)N(c2ccc(S(=O)(=O)Nc3ncccn3)cc2)C(N)=N1 (stereo unspecified) ): > 100 µM (inactive)

// recorded GI50 for O=S(=O)(c1ccc(/N=C2\NC(c3ccc(O)cc3)(c3ccccc3O)c3ccccc32)cc1)c1ccc(/N=C2/NC(c3ccc(O)cc3)(c3ccccc3O)c3ccccc32)cc1 (stereo unspecified) : 2.75 µM (inactive)

The molecule listed as O=C1CCCC/C1=C/C=C/c1ccccc1 shows GI50 equal to > 100 µM (inactive)

The values you see were collected from ChEMBL document CHEMBL1201862.
